Hey, just so you know, these numbers are from patent US20240376207A1.

Form field: MLR IFNγ (pg/mL), 4 nM antibody (one value per entry).
Target: T1, human PVRIG expressed on cells (human, UniProt Q6DKI7 41-326)
T1 sequence (looked up): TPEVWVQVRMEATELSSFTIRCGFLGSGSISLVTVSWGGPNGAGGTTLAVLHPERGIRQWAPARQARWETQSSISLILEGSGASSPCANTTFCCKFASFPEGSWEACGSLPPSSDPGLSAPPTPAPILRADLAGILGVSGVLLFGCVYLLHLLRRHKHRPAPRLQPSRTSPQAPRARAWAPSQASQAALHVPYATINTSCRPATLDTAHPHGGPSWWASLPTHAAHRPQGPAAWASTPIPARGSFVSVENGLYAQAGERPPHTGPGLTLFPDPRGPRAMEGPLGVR
Assay: cell-based or functional assay
Use pg/mL as the unit, but write only the number.

anti-PVRIG antibody 38 (antibody, human IgG4 S228P, F234A L235A, V domains shown, no light chain) VH: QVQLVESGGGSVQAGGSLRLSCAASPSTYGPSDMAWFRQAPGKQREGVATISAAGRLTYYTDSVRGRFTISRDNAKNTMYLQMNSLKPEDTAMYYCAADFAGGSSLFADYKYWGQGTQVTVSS; 1390
anti-PVRIG antibody 30 (antibody, human IgG4 S228P, F234A L235A, V domains shown, no light chain) VH: HVQLVESGGGSVQAGGSLRLSCEASGYSYSGDCMGWFRRAPGKERDEGVATIDNAGRIKYADSVKGRFTISHGNGKYILYLQMNSLKPEDTDMYYCAAGWTFGGNCSPADWGQGTQVTVSS; 1680
anti-PVRIG antibody 151 (antibody, human IgG4 S228P, F234A L235A, V domains shown, no light chain) VH: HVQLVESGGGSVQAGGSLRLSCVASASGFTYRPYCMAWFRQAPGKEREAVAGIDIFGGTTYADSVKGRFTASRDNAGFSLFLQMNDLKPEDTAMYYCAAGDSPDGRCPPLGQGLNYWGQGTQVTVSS; 1500

Moving on to the next binder.
For the binder positive antibody Tab5 (antibody, human IgG4 S228P, kappa, F234A L235A, V domains shown, Variable regions of CPA.7.021 (WO2016134333A1) on human IgG4 (S228P/F234A/L235A/K447A) and human kappa constant regions) VH: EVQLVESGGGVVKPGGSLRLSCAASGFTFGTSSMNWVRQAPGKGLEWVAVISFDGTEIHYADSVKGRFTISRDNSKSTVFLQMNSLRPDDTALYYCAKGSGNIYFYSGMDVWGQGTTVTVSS VL: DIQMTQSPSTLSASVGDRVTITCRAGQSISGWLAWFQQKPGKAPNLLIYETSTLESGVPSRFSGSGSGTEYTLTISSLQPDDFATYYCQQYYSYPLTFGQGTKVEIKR , give its measured MLR IFNγ (pg/mL), 4 nM antibody value.
912
